- System: 898857-211-R-J1-PDC complex spheroids, growth % test/control
- experiment.summary: Anticancer human tumor 898857-211-R-J1-PDC patient-derived melanoma cell line growth inhibition [RAS]
- condition: second compound 0.1 µM; first compound 0.0316 µM; stronger effect = lower value
property.label: viability, T/C (%)
Reply numerically in %, unit not repeated.

# annotated cases, reported viability, T/C shown
• C=CC(=O)N1CCN(c2nc(OCC3CCCN3C)nc3c(F)c(-c4nc(N)cc(C)c4C(F)(F)F)c(Cl)cc23)C(C)C1 (stereo not given) + C#Cc1c(F)ccc2cc(O)cc(-c3ncc4c(N5CC6CCC(C5)N6)nc(OCC56CCCN5CC(F)C6)nc4c3F)c12 = 109
• O=C(c1ccc(F)c(F)c1Nc1ccc(I)cc1F)N1CC(O)([C@@H]2CCCCN2)C1 + C=CC(=O)N1CCN(c2nc(OCC3CCCN3C)nc3c(F)c(-c4nc(N)cc(C)c4C(F)(F)F)c(Cl)cc23)C(C)C1 = 28
• Nc1ccn(C2OC(CO)C(O)C2(F)F)c(=O)n1 (stereo not given) + C=CC(=O)N1CCN(c2nc(OCC3CCCN3C)nc3c(F)c(-c4nc(N)cc(C)c4C(F)(F)F)c(Cl)cc23)C(C)C1 = 6.93

The value of viability, T/C measured for the compound CC(C)NCC(C(=O)N1CCN(c2ncnc3c2C(C)CC3O)CC1)c1ccc(Cl)cc1 (stereo not given) + C#Cc1c(F)ccc2cc(O)cc(-c3ncc4c(N5CC6CCC(C5)N6)nc(OCC56CCCN5CC(F)C6)nc4c3F)c12 turned out to be 116

The value of viability, T/C measured for the compound Cc1nc(N2CCC3(CC2)COC(C)C3N)c(CO)nc1Sc1ccnc(N)c1Cl (stereo not given) + C#Cc1c(F)ccc2cc(O)cc(-c3ncc4c(N5CC6CCC(C5)N6)nc(OCC56CCCN5CC(F)C6)nc4c3F)c12 turned out to be 103

###

Recorded viability, T/C, one value per entry.
- Test system: 898857-211-R-J1-PDC complex spheroids, growth % test/control
- experiment.summary: Anticancer human tumor 898857-211-R-J1-PDC cell line growth inhibition [RAS];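 also: spheroids exposed to compound for seven days before readout; 100% = DMSO vehicle control wells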
- condition: second compound 0.0949 µM; first compound 10 µM; stronger effect = lower value

The value of viability, T/C measured for the molecule CC(C)NCC(C(=O)N1CCN(c2ncnc3c2C(C)CC3O)CC1)c1ccc(Cl)cc1 (centres undefined) + CCn1c(-c2cccnc2C(C)OC)c2c3cc(ccc31)N1CCOC(CC(NC(=O)C(C(C)C)N(C)C(=O)C3(F)CCN(C(=O)C#CC(C)(C)N(C)C)CC3)C(=O)N3CCCC(N3)C(=O)OCC(C)(C)C2)C1 turned out to be 39.7%

The value of viability, T/C measured for the molecule C[C@@H](NC(=O)c1ncnc(N)c1Cl)c1ncc(C(=O)Nc2cc(C(F)(F)F)c(Cl)cn2)s1 + CCn1c(-c2cccnc2C(C)OC)c2c3cc(ccc31)N1CCOC(CC(NC(=O)C(C(C)C)N(C)C(=O)C3(F)CCN(C(=O)C#CC(C)(C)N(C)C)CC3)C(=O)N3CCCC(N3)C(=O)OCC(C)(C)C2)C1 turned out to be 24.9%

The value of viability, T/C measured for the molecule CC(C)NCC(C(=O)N1CCN(c2ncnc3c2C(C)CC3O)CC1)c1ccc(Cl)cc1 (centres undefined) + CCn1c(-c2cc(N3CCN(C)CC3)cnc2C(C)OC)c2c3cc(ccc31)-c1csc(n1)CC(NC(=O)C1CC1C)C(=O)N1CCCC(N1)C(=O)OCC(C)(C)C2 turned out to be 45.6%

The value of viability, T/C measured for the molecule CCC(CC)c1cc(NC2CCC(N)C2)n2nccc2n1 (centres undefined) + CCn1c(-c2cccnc2C(C)OC)c2c3cc(ccc31)N1CCOC(CC(NC(=O)C(C(C)C)N(C)C(=O)C3(F)CCN(C(=O)C#CC(C)(C)N(C)C)CC3)C(=O)N3CCCC(N3)C(=O)OCC(C)(C)C2)C1 turned out to be 0.45%

###

- System: 898857-211-R-J1-PDC complex spheroids, growth % test/control
- experiment.summary: Anticancer human tumor 898857-211-R-J1-PDC cell line growth inhibition [RAS]; active = viability on the fitted dose curve at most 10% of control; inactive = the rest;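 also: spheroids exposed to compound for seven days before readout; 100% = DMSO vehicle control wells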
- condition: compound 1 µM
Reply using exactly one outcome from true = active, false = inactive

• Cc1nc(N2CCC3(CC2)COC(C)C3N)c(CO)nc1Sc1ccnc(N)c1Cl (stereo unspecified) = false
• CC(=O)OC12COC1CC(O)C1(C)C(=O)C(O)C3=C(C)C(OC(=O)C(O)C(NC(=O)OC(C)(C)C)c4ccccc4)CC(O)(C(OC(=O)c4ccccc4)C21)C3(C)C (stereo unspecified) = false
• C=CC(=O)N1CCN(c2nc(OCC3CCCN3C)nc3c(F)c(-c4nc(N)cc(C)c4C(F)(F)F)c(Cl)cc23)C(C)C1 (stereo unspecified) = false
• C#Cc1c(F)ccc2cc(O)cc(-c3ncc4c(N5CC6CCC(C5)N6)nc(OCC56CCCN5CC(F)C6)nc4c3F)c12 (stereo unspecified) = false
• C[C@@H](NC(=O)c1ncnc(N)c1Cl)c1ncc(C(=O)Nc2cc(C(F)(F)F)c(Cl)cn2)s1 = false

Query :: State the result this test recorded for C=CC(=O)Nc1cc(Nc2nccc(-c3cn(C)c4ccccc34)n2)c(OC)cc1N(C)CCN(C)C .
Result :: false

Query :: State the result this test recorded for CC(C)NCC(C(=O)N1CCN(c2ncnc3c2C(C)CC3O)CC1)c1ccc(Cl)cc1 (stereo unspecified) .
Result :: false

###

- Tested on: 898857-211-R-J1-PDC complex spheroids, growth % test/control
- experiment.summary: Anticancer human tumor 898857-211-R-J1-PDC cell line growth inhibition [RAS]; active = viability on the fitted dose curve at most 10% of control; inactive = the rest;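 also: spheroids exposed to compound for seven days before readout; 100% = DMSO vehicle control wells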
- condition: second compound 0.316 µM; first compound 1 µM
Reply using exactly one outcome from true (active), false (inactive)

Worked examples, 3 molecules total:
* CC1(O)CCCC1n1c(=O)c(C(F)F)cc2cnc(NC3CCN(S(C)(=O)=O)CC3)nc21 (stereo not given) + C=CC(=O)N1CCN(c2nc(OCC3CCCN3C)nc3c(F)c(-c4nc(N)cc(C)c4C(F)(F)F)c(Cl)cc23)C(C)C1 | false
* C[C@@H](NC(=O)c1ncnc(N)c1Cl)c1ncc(C(=O)Nc2cc(C(F)(F)F)c(Cl)cn2)s1 + C=CC(=O)N1CCN(c2nc(OCC3CCCN3C)nc3c(F)c(-c4nc(N)cc(C)c4C(F)(F)F)c(Cl)cc23)C(C)C1 | false
* CCC(CC)c1cc(NC2CCC(N)C2)n2nccc2n1 (stereo not given) + C#Cc1c(F)ccc2cc(O)cc(-c3ncc4c(N5CC6CCC(C5)N6)nc(OCC56CCCN5CC(F)C6)nc4c3F)c12 | false

Query :: State the result this test recorded for CC(=O)OC12COC1CC(O)C1(C)C(=O)C(O)C3=C(C)C(OC(=O)C(O)C(NC(=O)OC(C)(C)C)c4ccccc4)CC(O)(C(OC(=O)c4ccccc4)C21)C3(C)C (stereo not given) + C#Cc1c(F)ccc2cc(O)cc(-c3ncc4c(N5CC6CCC(C5)N6)nc(OCC56CCCN5CC(F)C6)nc4c3F)c12 .
Result :: false

Query :: State the result this test recorded for CCN1CCN(Cc2ccc(Nc3ncc(F)c(-c4cc(F)c5nc(C)n(C(C)C)c5c4)n3)nc2)CC1 + C#Cc1c(F)ccc2cc(O)cc(-c3ncc4c(N5CC6CCC(C5)N6)nc(OCC56CCCN5CC(F)C6)nc4c3F)c12 .
Result :: false

Query :: State the result this test recorded for Cc1nc(N2CCC3(CC2)COC(C)C3N)c(CO)nc1Sc1ccnc(N)c1Cl (stereo not given) + C#Cc1c(F)ccc2cc(O)cc(-c3ncc4c(N5CC6CCC(C5)N6)nc(OCC56CCCN5CC(F)C6)nc4c3F)c12 .
Result :: false

Query :: State the result this test recorded for Nc1ccn(C2OC(CO)C(O)C2(F)F)c(=O)n1 (stereo not given) + C#Cc1c(F)ccc2cc(O)cc(-c3ncc4c(N5CC6CCC(C5)N6)nc(OCC56CCCN5CC(F)C6)nc4c3F)c12 .
Result :: true

Query :: State the result this test recorded for CC(C)NCC(C(=O)N1CCN(c2ncnc3c2C(C)CC3O)CC1)c1ccc(Cl)cc1 (stereo not given) + C=CC(=O)N1CCN(c2nc(OCC3CCCN3C)nc3c(F)c(-c4nc(N)cc(C)c4C(F)(F)F)c(Cl)cc23)C(C)C1 .
Result :: false

Query :: State the result this test recorded for CCN1CCN(Cc2ccc(Nc3ncc(F)c(-c4cc(F)c5nc(C)n(C(C)C)c5c4)n3)nc2)CC1 + C=CC(=O)N1CCN(c2nc(OCC3CCCN3C)nc3c(F)c(-c4nc(N)cc(C)c4C(F)(F)F)c(Cl)cc23)C(C)C1 .
Result :: false

Query :: State the result this test recorded for C=CC(=O)Nc1cc(Nc2nccc(-c3cn(C)c4ccccc34)n2)c(OC)cc1N(C)CCN(C)C + C#Cc1c(F)ccc2cc(O)cc(-c3ncc4c(N5CC6CCC(C5)N6)nc(OCC56CCCN5CC(F)C6)nc4c3F)c12 .
Result :: false
